Test system: MDA-MB-435 melanoma
protocol-details: NCI-60 one-dose screen, 48 h (100 = growth as untreated, 0 = no growth, -100 = all killed)
experimental-parameters: 10 µM unless noted
About 83,000 compounds went through this panel and 20% of them were active in at least one assay; those are over-represented in the sample as a whole.
endpoint-label: growth (%)
Write the answer as a number in %, unit excluded.

// solved cases for growth follow
O=C(/C=C/c1cc2ccccc2[nH]c1=O)c1ccc(O)cc1 = 34.3
CCCCCCC(C)(O)c1ccccc1 (centres undefined) = 106
COc1ccc2c(c1)nc(N)c1c3cc(C)c(C)cc3cn21 = -18

Requested read-out: growth. Entry: `CC(C)(C)c1ccc(S(=O)(=O)O)s1`
102

* * *

Test system: ACHN renal
protocol-details: NCI-60 one-dose screen, 48 h
experimental-parameters: 10 µM unless noted
About 83,000 compounds went through this panel and 20% of them were active in at least one assay; those are over-represented in the sample as a whole. Calls of active or inactive are those of the source. Rule for the calls: active = growth percent below 10; inactive = the rest.
The reply should name one outcome from active, inactive

Answered examples (3):
O=C(Nc1ccc(Cl)cc1)c1cc2c(cc1O)[nH]c1ccccc12 = inactive
Nc1cc(Cl)c(S(N)(=O)=O)cc1S(N)(=O)=O = inactive
C[C@]12CC[C@@H]3c4ccc(O)cc4CC[C@H]3[C@@H]1CC[C@@H]2NS(=O)(=O)c1cccc(Br)c1 = inactive

Called result for `O=C1OCCCCCCCCCC#Cc2ccccc21`
inactive

Called result for `CNc1ccc(CSc2ccc(Cl)cc2)cc1`
inactive

Called result for `COc1ccc(/C=C2\NC(=S)NC2=O)cc1`
inactive

Called result for CCOC(=O)C1C(=O)OC2CCCCC21 (stereo not given)
inactive

Called result for COc1cc(C2NC(c3ccc(Cl)cc3)C(C)C(=NC(=O)c3cnccn3)C2C)cc(OC)c1OC (stereo not given)
inactive

Called result for C=C1c2c(C)nn(-c3ccc(C#CCOC4OC(CO)C(O)C(O)C4O)cc3)c2N(C)C23C[C@H]1C1(C)c4c(C)nn(-c5ccc(C#CCOC6OC(CO)C(O)C(O)C6O)cc5)c4N(C)C(C)(C[C@H]12)C3 (stereo not given in full)
inactive

Called result for CCOC(=O)C1=NN(c2ccc(Cl)cc2)C2C3N(c4ccc(Cl)cc4)N=C(C(=O)OCC)N3c3ccccc3N12 (stereo not given)
inactive

Called result for `Cc1cc2c(cc1C)Nc1sc(NC(=O)CN3CCN(C)CC3)nc1C(=O)N2`
inactive

Called result for `Cc1cc(NC(=O)c2ccc(N)cc2)ccc1N=Nc1ccc2c(O)c(N=Nc3ccc(Cl)c(S(=O)(=O)O)c3)c(S(=O)(=O)O)cc2c1`
inactive

Called result for `O=C(Nc1ccc(Cl)cc1)Nc1ccc(Oc2nncc3ccccc23)cc1`
active

* * *

System: NCI-H522 lung
protocol-details: NCI-60 one-dose screen, 48 h
experimental-parameters: 10 µM unless noted
About 83,000 compounds went through this panel and 20% of them were active in at least one assay; those are over-represented in the sample as a whole. Activity calls are given as the source filed them. How the source made its calls: active means growth percent below 10; inactive means the rest.
The reply should name one outcome from Yes = active, No = inactive

Answered examples (4):
CCN(CC)CCNc1ccc(Cl)cc1Cl = No
O=c1cc(-c2cccnc2)oc2c1ccc1ccccc12 = No
COC(=O)CCC1=C(C)/C(=C/c2[nH]c(-c3ccc[nH]3)cc2OC)N=C1C = Yes
NCCCc1nnc(CCC(=O)c2nc3ccccc3[nH]2)o1 = No

Consider the additional compound presented here.
Called result for CC(C)(C)c1ccc(C(O)CCCN2CCC(C(O)(c3ccccc3)c3ccccc3)CC2)cc1 (stereo not given)
Yes
